Tested on: Plasmodium falciparum PfDd2
Construct: Dd2
Experiment: microbe, parasite or virus in culture
Set-up: species or system P. falciparum asexual blood stages; asexual blood stage growth inhibition, pLDH read-out
Settings: read-out: Mean IC50 ± SEM (µM), pLDH
Reported endpoint: IC50 (µM)
Give bare numbers, in µM.

Item O=c1[nH]c2ccc(Cl)cc2c(N[C@@H]2CN3CCC2CC3)c1-c1nc2ccccc2[nH]1 [CHIR-124] was tested on Plasmodium falciparum PfDd2; the reported IC50 is 0.44
